# normalized growth per record follows
Test: chemical genetic growth profiling, strain panel (AID 1159580);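 note: tested at 20 µM; growth read once vehicle control cultures reached saturation at 30 °C; 1 = growth at the plate median or of vehicle wells; lower values mean less growth of the strain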
Settings: S. cerevisiae deletion strains, growth OD, locus YER110C, stronger effect = lower value
In all, about 5,500 compounds went through this assay and about 2,000 (36%) were called active. Roughly 18% stayed inconclusive and do not appear here. Some of the results follow.

Check out these entries, answers already filled in.
CO[C@@]1(NC(=O)CSCC#N)C(=O)N2C(C(=O)O)=C(CSc3nnnn3C)CSC21 (stereo partly specified) = 1.04 (inactive)
CC(=O)OCC(OC(C)=O)C(OC(C)=O)C(OC(C)=O)C(OC(C)=O)C(COC(C)=O)OC(C)=O (stereo unspecified) = 0.963 (inactive)
C#CCCCCCCCCCCCC(O)CC(O)COC(C)=O (stereo unspecified) = 0.965 (inactive)
Cn1c(=O)c2[nH]cnc2n(C)c1=O = 0.978 (inactive)
C=CCCCCCCCCCCCC(O)CC(O)COC(C)=O (stereo unspecified) (tested in a mixture with another compound) = 0.995 (inactive)
CC1(C)O[C@@H]2CC3C4CCC5=CC(=O)CCC5(C)C4(F)C(O)CC3(C)[C@]2(C(=O)CCl)O1 (stereo partly specified) = 0.975 (inactive)
CC(=O)OCC(COC(C)=O)OC(C)=O = 1.01 (inactive)
CCCCNc1ccc(C(=O)OCCN(C)C)cc1 = 1.02 (inactive)

Documented normalized growth of `CCCCOC(=O)c1ccccc1C(=O)OCc1ccccc1` : 0.968 (inactive)

Documented normalized growth of `CC(=O)OCC[C@H](C)CCC=C(C)C` : 1.03 (inactive)

Documented normalized growth of `CCCCN(CCCC)CCCOC(=O)c1ccc(N)cc1` : 0.989 (inactive)
